- assay-info: Langmuir monolayer penetration assay, lipid mixture not singled out (Figure 5)
- Format: physicochemical
- details: Figure 5B; πi 5 mN/m, peptide 0.2 µM, Hepes pH 7.4, duplicate
value-type: initial velocity of surface pressure increase Vi (affinity), in words

WGRIVAFFSFGGALSVESVDK [BCLX-α5S, short peptide of helix α5 of BCL-xL]; strong
VLVSRIAAWMATYLNDHLEPWIQE [BCLX-α6, second helix (α6) of the central hairpin of BCL-xL]; strong
ESQEDIIRNIARHLAQVGDSMDRSIPPGL [BID-BH3, peptide corresponding to the BH3 domain of BID]; strong
